- experimental.target: full length spike (S) protein of SARS-CoV-2 (SARS-CoV-2, UniProt P0DTC2 14-1273)
- protocol.details: cell-based or functional assay
Measured IC90, Pesudovirus neutralization of individual entries
endpoint.name: IC90, Pesudovirus neutralization (µg/mL)

binder | uom | recorded.measurement
P5A-1D1 (antibody, V domains shown) VH: EVQLVESGGGLIQPGGSLRLSCAASGLTVSSNYMSWVRQAPGKGLEWVSVIYSGGSTYYADSVKGRFTISRDNSKNTLYLQMNSLRAEDTAVYYCARDLYYYGMDVWGQGTTVTVST VL: DIQLTQSPSFLSASVGDRVTITCRASQGISSYLAWYQQKPGKAPKLLIYAASTLQSGVPSRFSGSGSGTDFTLTISSLQPEDFATYYCQQLNSYPTFGQGTRLEIKR | µg/mL | 0.232
P5A-3A6 (antibody, human IgG1, lambda, V domains shown) VH: EVQLVESGGGLVQPGRSLRLSCAASGFTFDDYAMHWVRQAPGKGLEWVSGISWNSGTIGYADSVKGRFIISRDNAKNSLYLQMNSLRAEDTALYYCAGGGTMVRGVIAGGGTHPVDDYYGMDVWGQGTTVTVSS VL: QSALTQPASVSGSPGQSITISCTGTSSDVGGYNYVSWYQQHPGKAPKLMIYDVSNRPSGVSNRFSGSKSGNTASLTISGLQAEDEADYYCSSYTSSSTVVFGGGTKLTVLG | µg/mL | 2.77
P5A-2G9 (antibody, human IgG1, lambda, V domains shown) VH: QVQLVESGGGVVQPGRSLRLSCAASGFTFSSYGMHWVRQAPGKGLEWVAVIWYDGSNKYYADSVKGRFTISRDNSKNTLYLQMNSLRAEDTAVYYCARWFHTGGYFDYWGQGTLVTVSS VL: QPVLTQPPSSSASPGESARLTCTLPSDINVSSYNIYWYQQKPGSPPRYLLYYYSDSDKGQGSGVPSRFSGSKDASANTGILLISGLQSEDEADYYCMIWPSNALYVFGTGTKVTVLG | µg/mL | 0.498
P5A-1D10 (antibody, human IgG1, lambda, V domains shown) VH: QVQLVESGGGLVKPGGSLRLSCAASQFTFSDYSMTWIRQAPGKGLEWVSYISQSGSTIYYADSVKGRFTISRDNAKNSLYLQMNSLRAEDTAVYYCARGVSPSYVWGSYRSLYHFDYWGQGTLVTVSS VL: QSALTQPASVSGSPGQSITISCTGTSSDVGGYNYVSWYQQHPGKAPKLMIYDVSNRPSGVSNRFSASKSGNTASLTISGLQAEDEADYYCSSFTSSTTVVVFGGGTKLTVLG | µg/mL | 43.8
P5A-1B8 (antibody, human IgG1, kappa, V domains shown) VH: EVQLVESGGGLIQPGGSLRLSCAASGFTVSSNYMSWVRQAPGKGLEWVSVIYPGGSTFYADSVKGRFTISRDNSKNTLYLQMNSLRAEDTAVYYCARETLAFDYWGQGTLVTVSS VL: DIQLTQSPSFLSASVGDRVTITCRASQGISSYLAWYQQKPGKAPKLLIYAASTLQSGVPSRFSGSGSGTEFTLTISSLQPEDFATYYCQQLNSYPPAFGGGTKVEIKR | µg/mL | 0.137
